experimentDescription: Oral bioavailability in C57BL/6 mouse 10 mg/kg or 3 mg/kg, iv and measured up to 24 hrs by LC-MS/MS analysis
Type: ADME, organism-based
runConditions: in vivo
This section presents compounds with their documented bioavailability values.
// units = %; emit number, no label

The value of bioavailability measured for the compound O=C(Nc1ccc(C2CCC3(CC2)CC(C(=O)O)C3)cc1)c1nnc(Nc2ccc(F)c(F)c2)o1 (stereo not drawn) turned out to be 30

bioavailability reported for this compound O=C(O)CC1CCC2(CC1)CCN(c1ccc(NC(=O)c3nnc(Nc4ccc(F)c(F)c4)o3)cn1)CC2 : 41

Input O=C(O)CC1CCC2(CC1)CCC(c1ccc(NC(=O)c3nnc(Nc4ccc(F)c(F)c4)o3)cn1)CC2 (stereo not drawn) . Output bioavailability: 53

====

experimentDescription: Drug distribution in C57BL/6 mouse adipose tissue 10 mg/kg, po and measured at 8 hrs post dose by LC-MS/MS analysis
Type: ADME, organism-based
runConditions: read-out: Ct
Below, each entry is listed alongside its reported concentration at 8 h.
Report the figure in µM without appending any unit label.

O=C(Nc1ccc(N2CCC3(CC2)CC(C(=O)O)C3)nc1)c1nnc(Nc2ccc(F)c(F)c2)o1 | 0.08
O=C(Nc1ccc(C2CCC3(CC2)CC(C(=O)O)C3)cc1)c1nnc(Nc2ccc(F)c(F)c2)o1 (centres undefined) | 0.13
O=C(O)CC1CCC2(CC1)CCN(c1ccc(NC(=O)c3nnc(Nc4ccc(F)c(F)c4)o3)cn1)CC2 | 0.01

Below: the item to evaluate.
The compound identified as O=C(O)CC1CCC2(CC1)CCC(c1ccc(NC(=O)c3nnc(Nc4ccc(F)c(F)c4)o3)cn1)CC2 (centres undefined) registered its concentration at 8 h at 0.11

====

// reported remaining at 0.5 h, 1 µM per item
experimentDescription: Metabolic stability in mouse liver microsomes assessed as parent compound remaining at 1 uM and measured at 30 mins by LC-MS/MS analysis
Type: ADME, Microsome
runConditions: read-out: Stability
Provide only the numeric value, understood in %.

O=C(Nc1ccc(N2CCC3(CC2)CC(C(=O)O)C3)nc1)c1nnc(Nc2ccc(F)c(F)c2)o1 | 94
O=C(O)CC1CCC2(CC1)CCC(c1ccc(NC(=O)c3nnc(Nc4ccc(F)c(F)c4)o3)cc1)CC2 (stereo in doubt; 8) | 97
O=C(O)CC1CCC2(CC1)CCN(c1ccc(NC(=O)c3nnc(Nc4ccc(F)c(F)c4)o3)cn1)CC2 | 78

remaining at 0.5 h, 1 µM reading for O=C(O)CC1CCC2(CC1)CCC(c1ccc(NC(=O)c3nnc(Nc4ccc(F)c(F)c4)o3)cn1)CC2 (stereo not given) : 88

Field remaining at 0.5 h, 1 µM (entry O=C(Nc1ccc(C2CCC3(CC2)CC(C(=O)O)C3)cc1)c1nnc(Nc2ccc(F)c(F)c2)o1 (stereo not given) ) reads 96

====

experimentDescription: Tmax in Wistar rat at 3 mg/kg, iv or 10 mg/kg, po and measured up to 24 hrs by LC-MS/MS analysis
Format: ADME, organism-based
runConditions: in vivo
Listed below: Tmax values for each entry.
Write the number in h without appending the unit.

O=C(Nc1ccc(C2CCC3(CC2)CC(C(=O)O)C3)cc1)c1nnc(Nc2ccc(F)c(F)c2)o1 (centres undefined) | 1
O=C(Nc1ccc(N2CCC3(CC2)CC(C(=O)O)C3)nc1)c1nnc(Nc2ccc(F)c(F)c2)o1 | 0.5
O=C(O)CC1CCC2(CC1)CCC(c1ccc(NC(=O)c3nnc(Nc4ccc(F)c(F)c4)o3)cn1)CC2 (centres undefined) | 1.3

API: the following record is the query input.
The compound listed as O=C(O)CC1CCC2(CC1)CCN(c1ccc(NC(=O)c3nnc(Nc4ccc(F)c(F)c4)o3)cn1)CC2 shows Tmax equal to 1.4
